- System: THP-1 cells
- testDetails: THP-1 host cell toxicity in the intramacrophage assay
- Format: cell-based, human
- conditionInfo: Homo sapiens, THP-1; reference compound panel; mean (standard deviation); host cell toxicity; read-out: THP-1 (potency, pEC50) (converted)
valueType: EC50

>>> testresult("C[C@@H]1[C@H](O)[C@@H](C)/C=C/C=C/C=C/C=C/C=C/C=C/C=C/[C@H](O[C@@H]2O[C@H](C)[C@@H](O)[C@H](N)[C@@H]2O)C[C@@H]2O[C@](O)(C[C@@H](O)C[C@@H](O)[C@H](O)CC[C@@H](O)C[C@@H](O)CC(=O)O[C@H]1C)C[C@H](O)[C@H]2C(=O)O")
"26.9 µM"
>>> testresult("CC1CS(=O)(=O)CCN1/N=C/c1ccc([N+](=O)[O-])o1 (stereo not shown)")
"> 34.7 µM"
>>> testresult("OC(c1cc(C(F)(F)F)nc2c(C(F)(F)F)cccc12)C1CCCCN1 (stereo not shown)")
"12 µM"
>>> testresult("Cc1ccc(C(=O)Nc2ccc(S(=O)(=O)O)c3cc(S(=O)(=O)O)cc(S(=O)(=O)O)c23)cc1NC(=O)c1cccc(NC(=O)Nc2cccc(C(=O)Nc3cc(C(=O)Nc4ccc(S(=O)(=O)O)c5cc(S(=O)(=O)O)cc(S(=O)(=O)O)c45)ccc3C)c2)c1")
"> 34.7 µM"
>>> testresult("COc1ccc2cc3[n+](cc2c1OC)CCc1cc2c(cc1-3)OCO2")
"> 34.7 µM"
>>> testresult("N=C(N)c1ccc(OCCCCCOc2ccc(C(=N)N)cc2)cc1")
"> 34.7 µM"
>>> testresult("OC(c1ccc(Cl)cc1)(c1cncnc1)c1ccccc1Cl (stereo not shown)")
"> 34.7 µM"
>>> testresult("CC(=O)O[C@@]12CO[C@@H]1C[C@H](O)[C@@]1(C)C(=O)[C@H](O)C3=C(C)[C@@H](OC(=O)[C@H](O)[C@@H](NC(=O)OC(C)(C)C)c4ccccc4)C[C@@](O)([C@@H](OC(=O)c4ccccc4)[C@H]21)C3(C)C")
"> 34.7 µM"
>>> testresult("CC(C)(C)NC(=O)[C@@H]1CN(Cc2cccnc2)CCN1C[C@@H](O)C[C@@H](Cc1ccccc1)C(=O)N[C@H]1c2ccccc2C[C@H]1O")
"> 34.7 µM"
>>> testresult("CCN(CC)Cc1cc(Nc2ccnc3cc(Cl)ccc23)ccc1O")
"29.5 µM"
>>> testresult("NC[C@@H]1O[C@H](O[C@H]2[C@@H](O)[C@H](O[C@@H]3[C@@H](O)[C@H](N)C[C@H](N)[C@H]3O[C@H]3O[C@H](CO)[C@@H](O)[C@H](O)[C@H]3N)O[C@@H]2CO)[C@H](N)[C@@H](O)[C@@H]1O")
"> 34.7 µM"
>>> testresult("CC[C@@H]([C@H](C)O)n1ncn(-c2ccc(N3CCN(c4ccc(OC[C@@H]5CO[C@@](Cn6cncn6)(c6ccc(F)cc6F)C5)cc4)CC3)cc2)c1=O")
"17.8 µM"
>>> testresult("O=c1cc(-c2ccc(O)c(O)c2)oc2cc(O)cc(O)c12")
"14.5 µM"
>>> testresult("NCCCC(O)(P(=O)(O)O)P(=O)(O)O")
"> 34.7 µM"
>>> testresult("CSc1ccc(OCc2ncc([N+](=O)[O-])n2C)cc1")
"> 34.7 µM"
>>> testresult("CCN(CC)C(=S)SSC(=S)N(CC)CC")
"> 34.7 µM"
